Target: T1, M1-1
T1 construct: also called PD1 mutant M1-1
Test: scFv-phage ELISA
MEASURED_PROPERTY: OD490

| BINDER | QUANTITATIVE_READOUT |
| --- | --- |
| PD1-45F1 (antibody, V domains shown, scFv-phage in the screening ELISA; later whole IgG) VH: QVQLVQSGAEVKKPGASVKLSCKASGYTFNSYYVHWVRQAPGQGLEWMGIINPSDGSATYAQKFQGRVTMTSDTSTSSVYMELSSLRSEDTAVYYCARDGNYYDSRGYYYDTFDMWGQGTLITVSS VL: SYELTQDPAVSVALGQTVRITCQGDSLRTYYASWYQQKPGQAPILVIYGKNNRPSGIPDRFSGSSSGNTASLTITAAQAEDEADYYCNSRDSSGKSLVFGGGTKLTVL | 3.9 |
| PD1-45D6 (antibody, V domains shown, scFv-phage in the screening ELISA; whole IgG in the other assays) VH: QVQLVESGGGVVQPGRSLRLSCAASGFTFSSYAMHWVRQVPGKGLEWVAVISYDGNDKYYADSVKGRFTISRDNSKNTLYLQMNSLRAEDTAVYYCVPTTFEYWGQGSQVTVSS VL: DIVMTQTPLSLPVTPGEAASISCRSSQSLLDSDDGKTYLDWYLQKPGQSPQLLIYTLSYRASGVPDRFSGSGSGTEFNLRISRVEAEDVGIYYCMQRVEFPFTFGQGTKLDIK | 3.8 |

Measured values drawn from patent US20190248900A1 for this set.
